test: in vitro
stated_conditions: human, hela cells, % viability
I'd appreciate it if you marked entries condition met when viability at 28.5 h, 10 µM is lower than 90% and condition not met when it is not.

compound	label
CC(C)(C)C(=O)N1CCc2c([nH]c3ccccc23)C12CCNC2 (stereo not drawn) [CBK059462]	condition not met
COc1ccc(S(=O)(=O)N2CCN(C(=O)c3ccc(C(C)(C)C)cc3)CC2)cc1 [CBK157251]	condition not met
Cc1ccc(C(=O)C(OC(=O)c2ccc(-c3nnc(-c4ccccc4)o3)cc2)c2ccccc2)cc1 (stereo not drawn) [CBK265177]	condition met
O=C(Cn1c(=O)n(Cc2cccnc2)c(=O)c2ncccc21)NC1CCCC1 [CBK287666]	condition not met
Cc1ccc(S(=O)(=O)NC(=O)c2cc(C)n(-c3ccc(N(C)C)cc3)c2C)cc1 [CBK296085]	condition not met
Cc1ccc(C(=O)Nc2nnn(C)n2)c(Cl)c1 [CBK287856]	condition not met
